Values from the supplement of paper PMC9337992

Can you tell me cell proliferation for the items I'm about to list?
tested on: HCC153; test: cell proliferation (confluence) relative to DMSO control; higher = less growth inhibition; conditions: 5 uM; 6 d
Numbers only, in %.

O=C([C@@H](Cc1cccc(C(F)(F)F)c1)NS(=O)(=O)c1cc(F)c2c(c1)CCNC2)N1CCCC1 : 79.2

Hi, could you look up cell proliferation for each item in my list?
1. CNCCN1CCC(OCc2ccccc2)CC1
2. O=C(/C=C/N1C[C@H]2C[C@@H]1CN2c1ccccn1)c1ccccc1O
3. O=C(NC[C@H](O)CN1CCc2ccccc2C1)c1ccnc(NC2CCC2)c1
4. COc1cc(-c2cn(C)c(=O)c3cnccc23)c(OC)cc1CN(C)C
5. COc1ccc(CCc2nc3cc(-c4c(C)noc4C)ccc3n2C[C@H](C)N2CCOCC2)cc1Cl
6. Clc1cc2c(NC3CCCC3)nnc(-c3ccncc3)c2cc1Cl

60.3
87.8
37.2
55.9
48.7
87.7

Go through the list and state cell proliferation for each entry.
1. O=C(NCC(=O)N1CCCC1)Nc1ccc2cnccc2c1
2. CC(C)Oc1ccc(-c2c[nH]cc2CN(C)CCO)cc1
3. Cc1nnc2c3ccccc3c(N[C@@H](C)[C@H](c3ccccc3)N(C)C)nn12
4. Cn1cc(CCn2cnc(-c3cnn(C)c3)c2-c2ccc(C#N)cc2)cn1

1: 63; 2: 61.5; 3: 60.8; 4: 58.1

I would be grateful if you could provide cell proliferation for each of the following entries.
1. CCN(C(=O)CO)[C@H]1CN(/C(=N\C#N)Nc2cccc(OC(F)F)c2)N=C1c1ccc(Cl)c(Cl)c1
2. CCn1cc(-c2cccc(C(F)(F)F)c2)c2sc(C(=N)NC3CCS(=O)(=O)CC3)cc2c1=O
3. CC(C)Oc1ccc(-c2c[nH]cc2CN(C)CCN)cc1
4. COc1c(C)cc(NC(=O)c2nn(Cc3ccc(F)cc3)c3c2CN(C(=O)c2ccc[nH]2)C[C@]3(C)C(N)=O)cc1C
5. CC[C@H](C)n1cc(C)c2c(C(=O)NCc3c(C)cc(C)[nH]c3=O)cc(-c3ccc(N4CCNCC4)nc3)cc21

1. 82.4
2. 44.8
3. 59.3
4. 56.1
5. 87.9

Reported cell proliferation, compound O=C(c1ccc(C(=O)N2CCC(N3CCCC3)CC2)c(Nc2ccccc2)c1)N1CCC(N2CCCC2)CC1 : ____ 89.5
